- target: MMP7 (Homo sapiens, UniProt P09237)
- Sequence (P09237 95-267): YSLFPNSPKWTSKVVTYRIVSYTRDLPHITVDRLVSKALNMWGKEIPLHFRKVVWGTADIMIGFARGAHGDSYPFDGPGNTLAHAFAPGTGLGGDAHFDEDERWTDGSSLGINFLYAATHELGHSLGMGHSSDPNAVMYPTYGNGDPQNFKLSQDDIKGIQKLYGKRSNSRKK
- experiment_description: FRET substrate cleavage by recombinant MMP, inhibition by activity-based probe
- Assay type: biochemical
- Design: The recombinant catalytic domains of human MMPs 7 and 9 were purchased from Enzo Life Sciences, and of MMP 12 from Anaspec; purchased Enzo Life Sciences
- measurement_context: FRET substrate PEPDAB008 10 μM, read-out: IC50, inhibition of substrate cleavage of active MMP
quantity_name: IC50
Put your answer as a value accompanied by its unit after it.

Output IC50 of CC(C)CC(C(=O)NC(Cc1ccc(C(=O)c2ccccc2)cc1)C(=O)NCCOCCOCCOCC(=O)NCC(C)(C)SSC(C)(C)CNC(=O)CCCCC1SCC2NC(=O)NC21)C(O)C(=O)NO (stereo not shown)
9.2 nM

---

- target: UniProt:P03956
- Sequence (P03956 100-469): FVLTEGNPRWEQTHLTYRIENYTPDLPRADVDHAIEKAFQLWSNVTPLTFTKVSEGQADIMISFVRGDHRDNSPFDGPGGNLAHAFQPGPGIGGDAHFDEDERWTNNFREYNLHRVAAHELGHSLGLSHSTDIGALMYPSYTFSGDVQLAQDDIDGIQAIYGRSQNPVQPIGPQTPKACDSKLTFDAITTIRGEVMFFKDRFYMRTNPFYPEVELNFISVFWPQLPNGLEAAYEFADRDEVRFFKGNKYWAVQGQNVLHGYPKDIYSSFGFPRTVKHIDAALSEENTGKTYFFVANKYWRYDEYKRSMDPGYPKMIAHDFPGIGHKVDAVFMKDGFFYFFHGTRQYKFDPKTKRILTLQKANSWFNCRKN
- experiment_description: FRET substrate cleavage by recombinant MMP, inhibition by activity-based probe
- measurement_context: FRET substrate PEPDAB008 10 μM, read-out: IC50, inhibition of substrate cleavage of active MMP
quantity_name: IC50 (nM)
One number for each entry, in nM.

GET IC50 where system = UniProt:P03956 and item = CC(C)CC(C(=O)NC(Cc1ccc(C(=O)c2ccccc2)cc1)C(=O)NCCOCCOCCOCC(=O)NCC(C)(C)SSC(C)(C)CNC(=O)CCCCC1SCC2NC(=O)NC21)C(O)C(=O)NO (stereo not shown)
2.1

---

- target: UniProt P22894
- Sequence (P22894 101-467, species assumed): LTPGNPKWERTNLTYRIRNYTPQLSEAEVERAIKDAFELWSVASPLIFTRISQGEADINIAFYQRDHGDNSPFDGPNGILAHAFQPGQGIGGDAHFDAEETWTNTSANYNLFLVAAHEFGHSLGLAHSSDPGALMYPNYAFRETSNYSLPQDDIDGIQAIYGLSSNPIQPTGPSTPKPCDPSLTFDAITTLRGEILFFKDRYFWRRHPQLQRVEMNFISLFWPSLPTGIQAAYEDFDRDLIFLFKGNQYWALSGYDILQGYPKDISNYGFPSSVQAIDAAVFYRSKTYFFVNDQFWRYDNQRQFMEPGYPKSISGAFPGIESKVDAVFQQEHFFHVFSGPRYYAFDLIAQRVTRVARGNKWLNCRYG
- experiment_description: FRET substrate cleavage by recombinant MMP, inhibition by activity-based probe
- Format: biochemical
- measurement_context: FRET substrate PEPDAB008 10 μM, read-out: IC50, inhibition of substrate cleavage of active MMP
- Protocol: The binding of an activity-based probe, e.g., HxBP-Bt, to the active site of an MMP (as shown in FIG. 1A) would effectively reduce (or inhibit) the ability of such MMP to cleave its substrate. […] This correlation should also provide an IC50 value to measure the sensitivity/potency of the MAMBI system to bind, and thereby quantify, active MMPs. […] The fluorescence was monitored by plate reader. […] Reaction velocities were calculated from linear reaction periods from raw fluorescence value time courses. […]
quantity_name: IC50
Put your answer as a value accompanied by its unit after it.

Output IC50 of CC(C)CC(C(=O)NC(Cc1ccc(C(=O)c2ccccc2)cc1)C(=O)NCCOCCOCCOCC(=O)NCC(C)(C)SSC(C)(C)CNC(=O)CCCCC1SCC2NC(=O)NC21)C(O)C(=O)NO (stereo not shown)
2.4 nM

---

- target: MMP13 (Homo sapiens)
- experiment_description: FRET substrate cleavage by recombinant MMP, inhibition by activity-based probe
- measurement_context: FRET substrate PEPDAB008 10 μM, read-out: IC50, inhibition of substrate cleavage of active MMP
quantity_name: pIC50
Numbers only, as −log10 of the molar value.

Output pIC50 of CC(C)CC(C(=O)NC(Cc1ccc(C(=O)c2ccccc2)cc1)C(=O)NCCOCCOCCOCC(=O)NCC(C)(C)SSC(C)(C)CNC(=O)CCCCC1SCC2NC(=O)NC21)C(O)C(=O)NO (stereo not shown) [HxBP-Bt]
8.64
